assay: Selectivity index, ratio of CC50 for mouse J774A1 cells to IC50 for Leishmania donovani MHOM/IN/Dd8 amastigote
Type: functional, J774.A1
Each item that follows carries a reported Ratio CC50/IC50.
// return a plain number; no unit text

Consider the following illustrative entries.
smiles-data	Ratio CC50/IC50
COC(=O)C1=C(C)N(c2ccc(OC)cc2)C(C)=C(C(=O)OC)C1[C@@H]1O[C@H]2OC(C)(C)O[C@H]2[C@@H]1OCc1ccccc1	18.93
COC(=O)C1=C(C)N(c2ccc(Cl)cc2)C(C)=C(C(=O)OC)C1[C@@H]1O[C@H]2OC(C)(C)O[C@H]2[C@@H]2OC(C)(C)O[C@@H]21	1.06
N=C(N)c1ccc(OCCCCCOc2ccc(C(=N)N)cc2)cc1	1.08
COC(=O)C1=C(C)N(c2ccc(Cl)c(Cl)c2)C(C)=C(C(=O)OC)C1[C@@H]1O[C@H]2OC(C)(C)O[C@H]2[C@@H]1O	2.96
CCOC(=O)C1=C(C)N(c2ccccc2OC)C(C)=C(C(=O)OCC)C1[C@@H]1O[C@H]2OC(C)(C)O[C@H]2[C@@H]1OC	8.04

Below: the item to evaluate.
Provide one value: measured Ratio CC50/IC50 of "COC(=O)C1=C(C)N(c2ccc(C)cc2)C(C)=C(C(=O)OC)C1[C@@H]1O[C@H]2OC(C)(C)O[C@H]2[C@@H]1OC" 7.43

---

Each entry below carries its recorded CC50 at 72 h.
assay: Cytotoxicity against mouse J774A1 cells after 72 hrs by MTT assay
Type: cell-based, J774.A1
Use µg/mL as the unit, but write only the number.

Note CC50 at 72 h for the compound shown: "COC(=O)C1=C(C)N(c2ccc(Cl)cc2)C(C)=C(C(=O)OC)C1[C@@H]1O[C@H]2OC(C)(C)O[C@H]2[C@@H]1OCc1ccccc1" 4.22

Using the record for "COC(=O)C1=C(C)N(c2ccc(Cl)cc2)C(C)=C(C(=O)OC)C1[C@@H]1O[C@H]2OC(C)(C)O[C@H]2[C@@H]1OC" , state its measured CC50 at 72 h. 82.4

Annotate the compound "COC(=O)C1=C(C)N(c2ccc(OC)cc2)C(C)=C(C(=O)OC)C1[C@@H]1O[C@H]2OC(C)(C)O[C@H]2[C@@H]1OC" with its measured CC50 at 72 h. 18.6

Give CC50 at 72 h for the following compound: "COC(=O)C1=C(C)N(c2ccc(C)cc2)C(C)=C(C(=O)OC)C1[C@@H]1O[C@H]2OC(C)(C)O[C@H]2[C@@H]1OCc1ccccc1" 7.66

---

assay: Cytotoxicity against mouse J774A1 cells after 72 hrs by MTT assay
Assay type: cell-based, J774.A1
readout: CC50 at 72 h (µg/mL)
Response body: numeric value in µg/mL, unit text excluded.

Check out these entries, answers already filled in.
smiles-data	unit-annotation	CC50 at 72 h
COC(=O)C1=C(C)N(c2ccc(OC)cc2)C(C)=C(C(=O)OC)C1[C@@H]1O[C@H]2OC(C)(C)O[C@H]2[C@@H]1OCc1ccccc1	µg/mL	14.1
N=C(N)c1ccc(OCCCCCOc2ccc(C(=N)N)cc2)cc1	µg/mL	3.91
COC(=O)C1=C(C)N(c2ccc(Cl)cc2)C(C)=C(C(=O)OC)C1[C@@H]1O[C@H]2OC(C)(C)O[C@H]2[C@@H]1O	µg/mL	35.5

Give CC50 at 72 h for "CCOC(=O)C1=C(C)N(c2ccc(OC)cc2)C(C)=C(C(=O)OCC)C1[C@@H]1O[C@H]2OC(C)(C)O[C@H]2[C@@H]1OCc1ccccc1" 59.9
